experiment: yeast display, Sf9 membrane polyspecificity reagent, FACS + sequencing; frameworks hold sequencing errors

SEQUENCE_RECORD: QVQLVESGGGLVQAGGSLRLSCAASGRTFRRYFMGWYRQAPGKERELVAAISGGGGSTYYAGSVKGRFTISRDNAKNTVYLQMNSLKPEDTAVYYCAARIGWYQYWGYPTSYGYWGQGTQVTVSS
polyreactivity (PSR sort gate): high polyreactivity

SEQUENCE_RECORD: QDQLVESGGGLVQAGGSLRLSCAASGSIFKINAMGWYRQAPGKERELVATITWSTGTTYYADSVKGRFTISRDNAKNTVYLQMYSLKPEDTAVYYCATDGDSTKLDYWGQGTQVTVSS
polyreactivity (PSR sort gate): low polyreactivity

SEQUENCE_RECORD: QFQLVESGGGLVQEGGSLRLSCAPSGSTFRFYAMGWYRQSPGKERELVAVISSAGSTNYADSVKGRFTISRDNAKNTVYLQMNSLKPEDTAVYYCAAYRRYSIYNYWGEGTQVTVSS
polyreactivity (PSR sort gate): high polyreactivity

SEQUENCE_RECORD: QVQLVESGGGLVQAGGSLRLSCAASGFTFDYYAMGWYRQAPGKERELVASITFIGGNTNYADSVKGRFTISRDNAKNTVYLQMNSLKPEDTAVYYCAADFPWDYRYWFEYWGQGTQVTVSS
polyreactivity (PSR sort gate): low polyreactivity

SEQUENCE_RECORD: QVQLVESWGGLVQAGGSLRLSCAASGSTFIGYAMGWYRQAPGKERELVAAISWSGGSTYYADSVKGRFTISRDNAKNTVYLQMNSLKPEDTAVYYCAASQYVQGHKYYYWGQGTQVTVSS
polyreactivity (PSR sort gate): high polyreactivity

SEQUENCE_RECORD: QVQLVESGGGFVQAGGSLRLSCAASGSIFKRYAMGWYRQAPGKEWELVARISRRGGTYYADSVKGRFTISRDNAKNTVYLQINSLKPDDTAVYYCNANVIFADNNDRDYWGQGTQVTVSS
polyreactivity (PSR sort gate): low polyreactivity

SEQUENCE_RECORD: QVQLVESGGGLVQAGGSLRLRCAASGSTFAWYAMGWYRQAPGKESELVAAITQNGGRTYYADSVKGRFTISRDNAKNTVYLQMNSLKPEDTAVYYCANAFIQPGYKYDSWGQVTQVTVSS
polyreactivity (PSR sort gate): high polyreactivity

SEQUENCE_RECORD: QVQLVESGGGLVQAGGSLRLSCAASGFTLTQNAMGWYRQAPGKERELVAAISRSGGRTYYADSVKGRFTISRDNAKNTVYLQMNSLKPEDTAVYYCNAYVTYPGTTMDDWGQGTQVTVSS
polyreactivity (PSR sort gate): high polyreactivity

SEQUENCE_RECORD: QVQLVEAGGGLVQAGGSLRLSCAASGITFGDNAMGWYIQAPGKDRELVAAITLSDVDTYADSVKGRFTISRDNSKNTVYLQMISLKPEDTAVYDCAADYDFFSLYLYDYWGQGTQVTVSS
polyreactivity (PSR sort gate): low polyreactivity

SEQUENCE_RECORD: QVQLVESGGGLVQAGVSLRLSCAASGFIFSTYAMGGYRQAPGKERELFASIDWSGDSTYYADSVKGRFTISRDNAKNTVYLQMNSLKPEDTAVYYCAASLWPDYEYDYWGQGTQVTVSS
polyreactivity (PSR sort gate): low polyreactivity

SEQUENCE_RECORD: QVQLVESGGGFVQAGGSLRLSCAASGRTFRWNAMGWYRQAPGKERELVAAISSGGSTYYADSVKGRFTISRDNAKNTVYLQMNSLKPEDTAVYYCAKTSFKYRWSYPVISMDYWGQATQVTVSS
polyreactivity (PSR sort gate): high polyreactivity

---

assay: yeast display, Sf9 membrane polyspecificity reagent, FACS + sequencing; frameworks hold sequencing errors
PARAMETER_MEASURED: polyreactivity (PSR sort gate)

SEQUENCE_RECORD: QVQLDESGGGLVQAGGSLRLSCAASGSTFNIYAMGWYRRAPWQERELVAAITRGGSTNYADSVKGRFTISRDNAKNTVYLQMNSLKPEDTAVYYCAARTAYFTSYGRYYYWGQGTQVTVSS
PARAMETER_MEASURED: polyreactivity (PSR sort gate)
VAL: high polyreactivity
//
SEQUENCE_RECORD: QVQLVESGGGLVQAGGSLRLSCAASGSIFLAYAMGWYRQAPGKERELVATISSGGSTNYADSVKGRFTISRDNAKNTVYLQMNSLKPEDTAVYYCIADYSIPGYYWPYDYWGQGTQVTVSS
PARAMETER_MEASURED: polyreactivity (PSR sort gate)
VAL: low polyreactivity
//
SEQUENCE_RECORD: QVQLVESGGGLVQAGGSLRLSCAASGFILDTYGMGWYRQAPGKERELVAAISQSDVSTYYADSVKGRFTISRDNAKNTVYLQMNSLKPEDTAVYYCNAGAGKRGYDYWGQGTQVTVSS
PARAMETER_MEASURED: polyreactivity (PSR sort gate)
VAL: low polyreactivity
//
SEQUENCE_RECORD: QVQLVESGRGLVQAGGSLRLSCAASGFIFRDYAMGLYRQAPGKVRELVAAISSRGGGTSYADSVKGRFTITRDNAKNTVYLQMNSLKPEDTAVYYCNKGYGRYVVTAYDYWGQGTQVTVSS
PARAMETER_MEASURED: polyreactivity (PSR sort gate)
VAL: high polyreactivity
//
SEQUENCE_RECORD: QVQLVESGGGLVQAGGSLRLSCAASGSIFRLNTMGWYRQAPGKEMEFVAAISKGGTSTYYADSVKARFTISRDNAKNTVYLQMNSLKPEDTAVYYCAADYYSLYEATTDFDYWGQGTQVTVSS
PARAMETER_MEASURED: polyreactivity (PSR sort gate)
VAL: high polyreactivity
//
SEQUENCE_RECORD: QVQLVESGGGLVQAGGSLRLSCAASGSTFTIYAMGWYRQAPGKEREFVAAIDEDDGSTYYADSVKGRFTISRDNAKNTVYLQMNSLKPEDTAVYYCNADDIWGYAFDYWGQGTQVTVSS
PARAMETER_MEASURED: polyreactivity (PSR sort gate)
VAL: low polyreactivity
//
SEQUENCE_RECORD: QVQLVESGGGLVQAGGSLRLSCAASGFIFGYNDMGWYRQAPGKERELVAAINSGGSTYYADSVKGRFTISRDNAKNTVYLQMNSLKPEDTAVYYCAADYGYFEYDYWGQGTQVTVSS
PARAMETER_MEASURED: polyreactivity (PSR sort gate)
VAL: low polyreactivity
//
SEQUENCE_RECORD: QVQLVESGGCLVQEGGSLRLSCDASGRTFLTYAMGWYRQAPGKERELVAAITDGDSTNYADSVKGRFTISRDNAKNNVYLQMNSLKPEDTAVYYCNADSLAYRYYYWGQGTQVTVSS
PARAMETER_MEASURED: polyreactivity (PSR sort gate)
VAL: high polyreactivity
//
SEQUENCE_RECORD: QVQLVESGAGLVQAGGSLRLSCAASGFTFDYYAMGWYRQAPGKESELVATINGASSTNYADSVKGRFTISRDNAKNTVYLQMNSLKPEDTAVYDCNARYYGPDFVLAYDYWGQGTQVTVSS
PARAMETER_MEASURED: polyreactivity (PSR sort gate)
VAL: low polyreactivity
//
SEQUENCE_RECORD: QVQLVESGGGLVQAGGSLRLSCAASGIFRGYAMGWYRQAPGKEREFVAAISRTGGGTYYADSVKGRFTISRDNAKNTVYLQMNSLKPEDTAVYYCAAVRKYDGQKFGYWGQGTQVTVSS
PARAMETER_MEASURED: polyreactivity (PSR sort gate)
VAL: low polyreactivity
//
SEQUENCE_RECORD: QFQLVESGGGLVQAGGSLRLSCAASGRIFNYYAMGWYRQAPGKERELVAAISARGGSTYYADSVKGRFTISRDNAKNTVYLQMNSLKPEDTAVYYCAVSSGSYGYGYWGQGTQVTVSS
PARAMETER_MEASURED: polyreactivity (PSR sort gate)
VAL: high polyreactivity

---

test: yeast display, Sf9 membrane polyspecificity reagent, FACS + sequencing; frameworks hold sequencing errors

SEQUENCE_RECORD: QVQLVESGGGLVQAGGSLRLSCAASGLIFKYNVMGWYRQAPGKERELVAAITWGGTRTYYADSVKGRFTISRDNAKNTVYLQMNSLKPEDTAVYYCAVRSARIERNYWGQGTQVTVSS
polyreactivity (PSR sort gate): low polyreactivity

SEQUENCE_RECORD: QVQLVESGGGLVQAGGSLRLSCAASGSIFYRNAMGWYRQAPGKERELVAAISSRGTRTYYADSVKGRFTISRDNAKNTVYLQMNSLKPEDTAVYYCAAADYRFYNGPYSRRWLYGYWGQGTQVTVSS
polyreactivity (PSR sort gate): high polyreactivity

SEQUENCE_RECORD: QVQLVESGGGLVQAGGRLRLSCAASGSIFVYNALGWYRQAPGKQRELVAGITFIGGSTYYAESVKGRFTISRDNAKNTVYVQMNSRKPEDTAVYYCNKFPVSPPSYYWGQGTQVTVSS
polyreactivity (PSR sort gate): low polyreactivity

SEQUENCE_RECORD: QVQLVESGGGLVQAGGSLRLTSADSGRTFYKYAMGWYIQAPGKERELVAANSQSGGSTYYADSVNGRFTISRDNAKNTVYLQMNSLKPEDTAVYYCAARRLPRKERKLYYWGQGSQVTVSS
polyreactivity (PSR sort gate): high polyreactivity

SEQUENCE_RECORD: QVLLVESGGGLVQAGGSLSLSCAASGLIFVNAMGWYRQAPGKEREFVAAITYSTGSTYYADSVKGRFTISRDNAKNTVYLQMNSLKPEDTAFYYCAKDRSGHGTERDDWGQGTQVTVSS
polyreactivity (PSR sort gate): low polyreactivity
